Experiment: soluble on expression in E. coli; label from the status in PepcDB or PDB records
MEASURED_ATTRIBUTE: soluble on expression in E. coli

MSSGKVIVYGGKGALGSAILEFFKKNGYTVLNIDLSANDQADSNILVDGNKNWTEQEQSILEQTASSLQGSQVDGVFCVAGGWAGGSASSKDFVKNADLMIKQSVWSSAIAAKLATTHLKPGGLLQLTGAAAAMGPTPSMIGYGMAKAAVHHLTSSLAAKDSGLPDNSAVLTIMPVTLDTPMNRKWMPNADHSSWTPLSFISEHLLKWTTETSSRPSSGALLKITTENGTSTITPQ	soluble
MKYSKEYDEKTVVKINDVKFGEGFTIIAGPCSIESREQIMKVAEFLAEVGIKVLRGGAFKPRTSPYSFQGYGEKALRWMREAADEYGLVTVTEVMDTRHVELVAKYSDILQIGARNSQNFELLKEVGKVENPVLLKRGMGNTIQELLYSAEYIMAQGNENVILCERGIRTFETATRFTLDISAVPVVKELSHLPIIVDPSHPAGRRSLVIPLAKAAYAIGADGIMVEVHPEPEKALSDSQQQLTFDDFLQLLKELEALGWKG	soluble

---

Assay: soluble on expression in E. coli; label from the status in PepcDB or PDB records
MEASURED_ATTRIBUTE: soluble on expression in E. coli

MGSDKIHHHHHHMKILIIPNRGRSYNAVRPEAECYIALAEAGHDVTVISSGTNAYIDRYKKSKVKFIELKTLKKHSWAVIKQIRQYIKANNIDIVYATESKGIPNAAFACIGTKAKLVVYRGTSGGMYKTDPSNYLCMLHPRINGVIGVSSAVSANVREKVRGAIKANVETIYKGHDLSWYKEDAADLVSLGSNKKYFNILCVGSPRHHKGTHILLDAAKELNDIEDLRIILVGDNLDKQAFIDQINNSGMSEHILQPGFRSDVPAIAKACDLLILPSLSKEGLTRTVLESLSNGTPVVSSANDGVVETIENGFNGYLVPIGDVQAMADKIRMLYNDRVLLEKLSNHAQDIIKDKMSHHKTVTHMEAYFEKIIAQN	not soluble
MGSDKIHHHHHHMFPFERQNKIIHLLDQNSKITVPELSRILDVSISTIRNDLSSLEESGMIKKVHGGAVLLKSEEKFTNFNDRIIRNIEEKEAIAKEAATLVKNNQTIILDASSTALALAKELHGFSRLTVITSGLYTAIELKDNPNISVILTGGIVTTNSFTLEGILGANLIENIHADLCFMSAKGFTMEEGLTDFNIYETELKRLLAKRTNKLIALLDHTKMGVISTASITAAENIDLLITDNKINKALYKKFQDAGLPVKIAE	not soluble

---

Assay: soluble on expression in E. coli; label from the status in PepcDB or PDB records
MEASURED_ATTRIBUTE: soluble on expression in E. coli

A selection of reference data follows.
MATQMRLTDTNLLEVLNSEEYSGVLKEFREQRYSKKAILYTPNTERNLVFLVKSGRVRVYLAYEDKEFTLAILEAGDIFCTHTRAFIQAMEDTTILYTDIRNFQNIVVEFPAFSLNMVKVLGDLLKLLLTIINGLVFKDARLRLAEFLVQAAMDTGLKVPQGIKLELGLNTEEIALMLGTTRQTVSVLLNDFKKMGILERVNQRTLLLKDLQKLKEFSSGV	soluble
MLSAESLKQIDIELAKYPADQRRSAIMGALRIAQTEKGWLAPETIAFVADYIGITPAQAYEVATFYNMYDLEPVGKYKLTVCTNLPCALRGGMATGEYLKQKLGIGYGETTPDGKFTLVEGECMGACGDAPVMLVNNHSMCSFMTEEAIEKKLAELE	not soluble
MTENERAHADHASASPQRTRRRRGKPRRRMDSGASTQGGGASKSAAPSSSTSGSRGERGSRGDDKDKQNKHTRRKRRPAHRSTQRGSHGGDSSNSGSGIKRRRHTGNKNRGNQSRRQNNRSSRITTRDETSAGGLVISGLAEAVDENNNVDLSRIYVALIGRL	not soluble
MRASPTSPPEQVVVDASAMVDLLARTSDRCSAVRARLARTAMHAPAHFDAEVLSALGRMQRAGALTVAYVDAALEELRQVPVTRHGLSSLLAGAWSRRDTLRLTDALYVELAETAGLVLLTTDERLARAWPSAHAIG	soluble

// switching to the query sequence
# get_value(readout='soluble on expression in E. coli', item= SRILVSIGESFGTSEKFQKINQMVCNSDRVLKRSAEGSNPPKPLKK )
soluble

---

Assay: soluble on expression in E. coli; label from the status in PepcDB or PDB records
MEASURED_ATTRIBUTE: soluble on expression in E. coli

MRMMEAEIKDQRNNLQALKNSQRLSVRGSIQSNMSSRTDGILQRRLDETERKLAKTSAELKAKDEKLKKETASLEASREAHRLLQEESNKSKVSVMRLTFKLNRITHESVKEQAVLKKKLLDCETRLATYSECLVCYQKFDENTRIPRVMDCGHTLCDFCINQIVKMAGCYSATCPFDRVRIFGFGKSRRLEDRPCNRFIMK	not soluble
MTKIFEAKVLAVGPEALSMIKDANMLILFGEEAPQDLADYCYKIDNKNLSGHIKKGGHLVINGNDCQITAVGSVVEKNLTGLGHITISLDGSKESSLPGTLHIQAEFPVQLEAGSLIQIFD	soluble
MTRDLAPALQALSPLLGSWAGRGAGKYPTIRPFEYLEEVVFAHVGKPFLTYTQQTRAVADGKPLHSETGYLRVCRPGCVELVLAHPSGITEIEVGTYSVTGDVIELELSTRADGSIGLAPTAKEVTALDRSYRIDGDELSYSLQMRAVGQPLQDHLAAVLHRQRRSHHHHHH	soluble
GMKQPNYYQDVKQFHQTFHHPGADQPTAIPLDRGVKRATWTAEEAVVEFLHQSSQNETEFLAAIETFKAGLDQAVKKSLKETYPVTEVERLVGQGDALTDALYFIMGSFVEAGLEPGPLFEIVQQANMAKLGPDGQPIFRESDQKVMKPDGWLPPEPQLEAEVVRQMKEKA	soluble
MKKWKVRSALVALIVLLAGCSSNAQYNSSASGNVGTAWGGDVHSTVQGVSAERAWRDPAEMIVISYSTNVPSGYDRVYSIRINELEYAIRDGNFNSLPITRVYDSSNNEPRYIVHARVGMNYQLYVRNYSRNTNYEIVATVDGLDVLNGKQGSLNNNGYIVNAGDSLAIKGFRKDKHTEAAFQFANVADSYAANSAQGDVRNTGVIGFAAFELQGQAQNALPPCSGQAFPADNNGYAPPPCRK	not soluble

# get_value(readout='soluble on expression in E. coli', item= MATMARWERIVEGVKSIALIKRKIISRGKRIALLVDGPNILRKELGVHLEDIVEALSSLGNIRVAKVILNQYAPQSLIEAVSNQGFEPVIVAGEIGVKLAVEAMREVYNPNIDIIALATRNTEFVPIILKAKEKGKETAIIGVEPGFSSALKHAADYVIVLESRGELSEEGNIEDIEEGKGEGGRGRRKNDRLDN )
soluble

# get_value(readout='soluble on expression in E. coli', item= MIIVSRAIVLHNTAYNDSYSIAHLFSRESGRVSYLIPRSSKRGKSGGSLRLLISPLNELEITAEHKQHRDLHFIKEAKLCSLHGRIQSDPVRNSIALFLAEFLYLILRLPEADTNLYDFVAFSIDKLEEMDGPMANFHLAFLFRLLVPLGLIPDLQFGGSVIPRWFDPADGRFVPNAPAHGRGIPPHQSTYLQLFSRITFDNMKAFRLSRAERRQVLDYLVDYYRFHLPPFPLLKTPDILSTLFD )
not soluble

---

Assay: soluble on expression in E. coli; label from the status in PepcDB or PDB records
MEASURED_ATTRIBUTE: soluble on expression in E. coli

A selection of reference data follows.
MAHHHHHHMSSLDSVREDILDVFHIFDEDGSGSITMQELKRAIYTITGIRISRIDLSILVRTCKEEMLKESARKSEAGANVAGKAGEKLWTPEPESEVNTVDPQLFAAVVLKTLNRRTQEQELLFTFRLLEDKDYPGFITKDSLKRASADIDEHLTDQEVNEMFDKLVTGVSAAAIDFVTFSSLMETLRKSI	soluble
MKPDAHHVKQFLLRLQDDICQTLSAVDGANFVEDSWRREAGGGGRSRVLRNGGIFEQAGVNFSHVHGDAMPASATAHRPELAGRSFEAMGVSLVVHPHNPYIPTSHANVRFFIAEKPGADPVWWFGGGFDLTPYYGFEEDAVHWHRTARDLCQPFGDDVYPRYKKWCDDYFFLKHRNEQRGVGGLFFDDLNTPDFDHCFDFMQAVGNGYTRAYLPIVERRKAMVWGERERNFQLYRRGRYVEFNLVWDRGTLFGLQTGGRTESILMSMPPLVRWEYDWQPEAGSPEAALSEFIQVRDWILEHHHHHH	soluble
MGSDKIHHHHHHMAYNDSTKQYQRMLASYTRTGIETAIPGTKEEGIMRYRTMIYTIVNESLSTSYPLTRQLLTAQEWDDTVHRYFSTHACTSPYLWRMPLEFYEYIQEEQSALLIKYPCLSDLLLFEWVEIEVFMMEDEEVLHKTEGAVETDALVLNPACAVQYFQYPVYAKRAAEITPADAAHYFMLTHRNPETGNVAFLEIAPMFARMFEWLTEEAMSVDQLISRFTEESQLALAADSRINIVSFFKNCLSKRIILGFN	not soluble
MVNYKEKLDEAIHLTQQKGFEQTRAEWLMLDVFQWTRTDFVVHMHDDMPKAMIMKFDLALQRMLLGEPIQYIVGFASFYGRTFDVNSNCLIPRPETEEVMLHFLQQLEDDATIVDIGTGSGVLAITLKCEKPDLNVIATDISLEAMNMARNNAEKHQSQIQFLTGDALKPLINEGIKLNGLISNPPYIDEKDMVTMSPTVTRFEPHQALFADNHGYAIYESIIEDLPHVMEKGSPVVFEIGYNQGEALKSIILNKFPDKKIDIIKDINGHDRIVSFKW	not soluble
MAGSGVAKQIFALDFEIFGRVQGVFFRKHTSHEAKRLGVRGWCMNTRDGTVKGQLEAPMMNLMEMKHWLENNRIPNAKVSKAEFSQIQEIEDYTFTSFDIKH	soluble

# get_value(readout='soluble on expression in E. coli', item= MIQTPYYLIDADRLRQNMAVVDRLRQASGAKALLALKCFATWPAFEHMRDHMDGTTSSSLYELRLGREKFGKETHAYSVAWPDHEIDEAVGYADKIIFNSVGQLARFRNRTGGIARGLRLNPGLSTSGFDLADPARPFSRLGEWSAEKIEAVLPDISGVMIHYNCENADVDLFERQLSEIEGRFGAILDRLDWVSLGGGIHFTGEGYPVDRLAARLKAFAAAHGVQVYLEPGEAAITRSATLEVTVLDLLDNGKQLAIVDSSVEAHMLDLLIYRQSAKVEPDAGDHSYMVCGKSCLAGDIFGEFRFAQPLQVGDRLSIADAAGYTMVKKNWFNGVKMPSIVIREPDGSLRVAREFGYGDYASSLG )
not soluble

# get_value(readout='soluble on expression in E. coli', item= SGNRGVVYLGSGKVEVQKIDYPKMQDPRGKKIEHGVILKVVSTNICGSDQHMVRGRTTAQVGLVLGHEITGEVIEKGRDVENLQIGDLVSVPFNVACGRCRSCKEMHTGVCLTVNPARAGGAYGYVDMGDWTGGQAEYVLVPYADFNLLKLPDRDKAMEKIRDLTCLSDILPTGYHGAVTAGVGPGSTVYVAGAGPVGLAAAASARLLGAAVVIVGDLNPARLAHAKAQGFEIADLSLDTPLHEQIAALLGEPEVDCAVDAVGFEARGHGHEGAKHEAPATVLNSLMQVTRVAGKIGIPGLYVTEDPGAVDAAAKIGSLSIRFGLGWAKSHSFHTGQTPVMKYNRALMQAIMWDRINIAEVVGVQVISLDDAPRGYGEFDAGVPKKFVIDPHKTFSAA )
soluble

# get_value(readout='soluble on expression in E. coli', item= MGSDKIHHHHHHMKPLRKIRLGIVGCGIAARELHLPALKNLSHLFEITAVTSRTRSHAEEFAKMVGNPAVFDSYEELLESGLVDAVDLTLPVELNLPFIEKALRKGVHVICEKPISTDVETGKKVVELSEKSEKTVYIAENFRHVPAFWKAKELVESGAIGDPVFMNWQIWVGMDENNKYVHTDWRKKPKHVGGFLSDGGVHHAAAMRLILGEIEWISAVAKDLSPLLGGMDFLSSIFEFENGTVGNYTISYSLKGNERFEITGTKGKISISWDKIVLNEEEMKVPQENSYQKEFEDFYQVVAEGKPNDLGSPVQALKDLAFIEACVRSAGNKVFVSSLL )
soluble

# get_value(readout='soluble on expression in E. coli', item= MVPHDKDKDNPSELIRGKDVAAFGLWSLPSFDEPRDEPAVAAPQVPAVAEPAPAPPAVEEVELETVKPPTLEEIEAIRQDAYNEGFATGERDGFHAGQLKARQEAEEALKERLQSLERLMTQLLEPIAEQDALIEQGMVNLVNHVARQVIQRELHMDSSHVRQVLREALKLLPMGAANIRIHVNPQDFERVKALRERHEESWRILEDDSLLPGGCRIETEHSRIDATIETRLAQAVKQLFEQQREQATHPLASDIRIDLDAPGDVDAP )
not soluble

# get_value(readout='soluble on expression in E. coli', item= MNMSRHDEFGGSTNKGPVQEHDVIMRGRRLLDITGVKQVESFDNEEFLLETVMGFLAIRGQNLQMKNLDVDKGVVSIKGRIFDLVYLDDHQEKAKGFFSKLFK )
not soluble

# get_value(readout='soluble on expression in E. coli', item= MKVNIDPTAPTFATYRRDMRAEQMAEDYPVVSIDSDALDAARMLAEHRLPGLLVTAGAGKQYAVLPASQVVRFIVPRYVQDDPLLAGVLNESTADRCAERLSGKKVRDVLPDHLVEVPPANADDTIIEVAAVMARLRSPLLAVVKDGSLLGVVTASRLLAAALKT )
soluble

# get_value(readout='soluble on expression in E. coli', item= TNAVNIVMRQPTTPNFSSALNITSANEGGSAMQIRGVEKALGTLKITHENPSVDKEYDENAAALSIDIVKKQKGGKGTAAQGIYINSTSGTAGKMLRIRNKNKDKFYVGPDGDFWSCASSIVDGNLTVKDPTSGKHAATKDYVDEKIAELKKLILKK )
soluble
